Tested on: G-402 (Other Solid Carcinomas)
assayExplanation: combination Emax (second highest fraction inhibited in the dose matrix, 72 h); higher = more inhibition; extreme values may be limits of the assay
Measured combination Emax of individual entries

Examples with their reported combination Emax follow.
CC1(C)CCC(CN2CCN(c3ccc(C(=O)NS(=O)(=O)c4ccc(NCC5CCOCC5)c([N+](=O)[O-])c4)c(Oc4cnc5[nH]ccc5c4)c3)CC2)=C(c2ccc(Cl)cc2)C1 [Venetoclax] + C=CCn1c(=O)c2cnc(Nc3ccc(N4CCN(C)CC4)cc3)nc2n1-c1cccc(C(C)(C)O)n1 [AZD1775] (first compound max 1 µM, partner max 1 µM)	0.435
CCN(CCO)CCCOc1ccc2c(Nc3cc(CC(=O)Nc4cccc(F)c4)[nH]n3)ncnc2c1 [AZD2811] + O=C(c1cc(Cc2n[nH]c(=O)c3ccccc23)ccc1F)N1CCN(C(=O)C2CC2)CC1 [Olaparib] (first compound max 1 µM, 7x7, partner max 10 µM)	0.605
CN(CCO)CC[C@H](CSc1ccccc1)Nc1ccc(S(=O)(=O)NC(=O)c2ccc(N3CCC([C@@H](O)c4ccccc4-c4ccc(Cl)cc4)CC3)cc2)cc1S(=O)(=O)C(F)(F)F [AZD4320] + C[C@@H]1COCCN1C2=NC(=NC(=C2)C3(CC3)[S@](=N)(=O)C)C4=C5C=CNC5=NC=C4 [AZD6738] (first compound max 1 µM, 7x7, partner max 10 µM)	0.84
COc1nnc2ccc(N3CCC(c4ccc(OCCN5CCN(C)C(=O)[C@H]5C)cc4)CC3)nn12 [AZD5153] + CC1(C)CCC(CN2CCN(c3ccc(C(=O)NS(=O)(=O)c4ccc(NCC5CCOCC5)c([N+](=O)[O-])c4)c(Oc4cnc5[nH]ccc5c4)c3)CC2)=C(c2ccc(Cl)cc2)C1 [Venetoclax] (first compound max 1 µM, 7x7, partner max 1 µM)	0.769
C=CCn1c(=O)c2cnc(Nc3ccc(N4CCN(C)CC4)cc3)nc2n1-c1cccc(C(C)(C)O)n1 [AZD1775] + C[C@@H]1COCCN1C2=NC(=NC(=C2)C3(CC3)[S@](=N)(=O)C)C4=C5C=CNC5=NC=C4 [AZD6738] (first compound max 1 µM, partner max 10 µM)	0.674

Q: Consider the molecule Cc1cc2ncnn2cc1Nc1ncc2c(n1)n(C1CCOCC1)c(=O)n2C [AZD7648] + O=C(c1cc(Cc2n[nH]c(=O)c3ccccc23)ccc1F)N1CCN(C(=O)C2CC2)CC1 [Olaparib] (first compound max 10 µM, 7x7, partner max 10 µM) and give its recorded combination Emax.
Result: 0.41

---

Measured combination Emax of individual entries
Test system: CA46 (Burkitt's Lymphoma)
assayExplanation: combination Emax (second highest fraction inhibited in the dose matrix, 72 h); higher = more inhibition; extreme values may be limits of the assay
# print the numeric value only

Q: Consider the compound C=CCn1c(=O)c2cnc(Nc3ccc(N4CCN(C)CC4)cc3)nc2n1-c1cccc(C(C)(C)O)n1 [AZD1775] + C[C@@H]1COCCN1C2=NC(=NC(=C2)C3(CC3)[S@](=N)(=O)C)C4=C5C=CNC5=NC=C4 [AZD6738] (first compound max 1 µM, partner max 10 µM) and give its recorded combination Emax.
Result: 0.739

Q: Consider the compound CC(=O)c1c(C)c2cnc(Nc3ccc(N4CCNCC4)cn3)nc2n(C2CCCC2)c1=O [Palbociclib] + CC1(C)CCC(CN2CCN(c3ccc(C(=O)NS(=O)(=O)c4ccc(NCC5CCOCC5)c([N+](=O)[O-])c4)c(Oc4cnc5[nH]ccc5c4)c3)CC2)=C(c2ccc(Cl)cc2)C1 [Venetoclax] (first compound max 10 µM, 7x7, partner max 1 µM) and give its recorded combination Emax.
Result: 0.355

Q: Consider the compound Cc1cc2ncnn2cc1Nc1ncc2c(n1)n(C1CCOCC1)c(=O)n2C [AZD7648] + CCN(CCO)CCCOc1ccc2c(Nc3cc(CC(=O)Nc4cccc(F)c4)[nH]n3)ncnc2c1 [AZD2811] (first compound max 10 µM, 7x7, partner max 1 µM) and give its recorded combination Emax.
Result: 0.418

Q: Consider the compound Cn1cnc2c(F)c(Nc3ccc(Br)cc3Cl)c(C(=O)NOCCO)cc21 [Selumetinib] + C[C@@H]1COCCN1C2=NC(=NC(=C2)C3(CC3)[S@](=N)(=O)C)C4=C5C=CNC5=NC=C4 [AZD6738] (first compound max 10 µM, 7x7, partner max 10 µM) and give its recorded combination Emax.
Result: 0.579

Q: Consider the compound Cc1c2c(nn1C)CSCc1cc(n(C)n1)CSc1cc(c3ccccc3c1)OCCCc1c(C(=O)O)n(C)c3c-2c(Cl)ccc13 [AZD5991] + CCN(CCO)CCCOc1ccc2c(Nc3cc(CC(=O)Nc4cccc(F)c4)[nH]n3)ncnc2c1 [AZD2811] (first compound max 1 µM, 7x7, partner max 1 µM) and give its recorded combination Emax.
Result: 0.193

Q: Consider the compound COc1nnc2ccc(N3CCC(c4ccc(OCCN5CCN(C)C(=O)[C@H]5C)cc4)CC3)nn12 [AZD5153] + Cc1c2c(nn1C)CSCc1cc(n(C)n1)CSc1cc(c3ccccc3c1)OCCCc1c(C(=O)O)n(C)c3c-2c(Cl)ccc13 [AZD5991] (first compound max 1 µM, 7x7, partner max 1 µM) and give its recorded combination Emax.
Result: 0.64

Q: Consider the compound Cc1cc2ncnn2cc1Nc1ncc2c(n1)n(C1CCOCC1)c(=O)n2C [AZD7648] + O=C(c1cc(Cc2n[nH]c(=O)c3ccccc23)ccc1F)N1CCN(C(=O)C2CC2)CC1 [Olaparib] (first compound max 10 µM, 7x7, partner max 10 µM) and give its recorded combination Emax.
Result: 0.221
